Target: T1, ScPho4 DBD (Saccharomyces cerevisiae, UniProt P07270 236-312)
T1 sequence: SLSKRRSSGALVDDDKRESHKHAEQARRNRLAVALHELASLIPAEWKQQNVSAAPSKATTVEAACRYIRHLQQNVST
Assay: BLI; mean of 5 replicates; 30 C; BLI: 1x PBS pH 7.4, 0.01% BSA, 0.002% Tween-20, 0.005% sodium azide, 30 C; EMSA: 20 mM Tris-HCl pH 8, 150 mM KCl, 10% glycerol, 5 mM MgCl2, 1 mM EDTA, 1 mM DTT, 4 C
Settings: protein: recombinant; tags: C-terminal 6xHis; chain copies: 2; blunt
PROPERTY_LABEL: Kd (nM)
Give the number; nM is assumed, so skip it.

If you can, please state the reported Kd value of 17-bp consensus E-box, BLI probe (dsDNA) DNA 1: CTAGTCCCACGTGTGAG DNA 2: CTCACACGTGGGACTAG .
5.2
